Biological target: T1, Recombinant mouse sclerostin (mouse, UniProt Q99P68 24-211)
T1 construct: Whole entry as named; also called mouse-SOST
T1 sequence: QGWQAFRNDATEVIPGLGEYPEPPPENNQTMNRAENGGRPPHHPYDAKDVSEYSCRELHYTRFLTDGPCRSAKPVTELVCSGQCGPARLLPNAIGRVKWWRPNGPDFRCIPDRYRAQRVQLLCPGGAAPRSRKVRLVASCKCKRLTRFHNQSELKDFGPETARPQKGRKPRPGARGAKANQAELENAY
Test: SPR (Biacore T200), 37 C, dissociation at pH 5.8 of complex formed at pH 7.4
Each record here notes measured koff.
Value expressed in s⁻¹; do not type the unit.

[
  {
    "BINDER": "mabA_pH3 (antibody, V domains shown) VH: EVQLVQSGAEVKKPGASVKVSCKASGYTFTDYNMHWVRQAPGQGLEWMGEINPHSGHAGYNQKFKGRVTMTTDTSTSTAYMELRSLRSDDTAVYYCARLHYDDIHDDWYFDVWGQGTTVTVSS VL: DIQMTQSPSSLSASVGDRVTITCRASHDISNYLNWYQQKPGKAPKLLIYYTSRLLSGVPSRFSGSGSGTDFTLTISSLQPEDFATYYCQQGDTLPYTFGGGTKVEIK",
    "NUMBER": 0.000932
  }
]

Next:
Value of koff reported for the binder mabB (antibody, V domains shown) VH: QVQLVQSGAEVKKPGASVKVSCKVSGFPIKDTFQHWVRQAPGKGLEWMGWSDPEIGDTEYASKFQGRVTMTEDTSTDTAYMELSSLRSEDTAVYYCATGDTTYKFDFWGQGTTVTVSS VL: DIQMTQSPSSLSASVGDRVTITCKASQDVHTAVAWYQQKPGKAPKLLIYWASTRWTGVPSRFSGSGSGTDFTLTISSLQPEDFATYYCQQYSDYPWTFGGGTKVEIK is 0.00265
